System: Radical scavenging activity
Experiment Description: Antioxidant activity assessed as DPPH radical scavenging activity at 50 uM/L after 2 hrs
Assay type: functional
Each item that follows carries a reported Activity.

[
  {
    "Molecule": "CC1=C2C(=O)Nc3cc(Cl)ccc3C2NC(=S)N1C (stereo not given)",
    "Activity / %": 9.5
  },
  {
    "Molecule": "CC1=C2C(=O)Nc3cccc(Cl)c3C2NC(=O)N1C (stereo not given)",
    "Activity / %": 1.5
  },
  {
    "Molecule": "CCN1C(=O)NC2C(=C1C)C(=O)Nc1c(Cl)cccc12 (stereo not given)",
    "Activity / %": 1.9
  },
  {
    "Molecule": "CCN1C(=O)NC2C(=C1C)C(=O)Nc1ccccc12 (stereo not given)",
    "Activity / %": 3.4
  },
  {
    "Molecule": "CC1=C2C(=O)Nc3cccc(F)c3C2NC(=S)N1C (stereo not given)",
    "Activity / %": 3.3
  },
  {
    "Molecule": "CCN1C(=O)NC2C(=C1C)C(=O)Nc1cccc(F)c12 (stereo not given)",
    "Activity / %": 3
  },
  {
    "Molecule": "CC1=C2C(=O)Nc3cccc(Cl)c3C2NC(=S)N1C (stereo not given)",
    "Activity / %": 7.7
  },
  {
    "Molecule": "CC1=C2C(=O)Nc3ccccc3C2NC(=S)N1C (stereo not given)",
    "Activity / %": 4
  },
  {
    "Molecule": "CC1=C2C(=O)Nc3ccccc3C2NC(=O)N1C (stereo not given)",
    "Activity / %": 2.5
  },
  {
    "Molecule": "CC1=C2C(=O)Nc3c(Cl)cccc3C2NC(=O)N1C (stereo not given)",
    "Activity / %": 3.1
  }
]

====

Activity for assorted compounds
Tested on: Radical scavenging activity
Experiment Description: Antioxidant activity assessed as DPPH radical scavenging activity at 200 uM/L after 2 hrs
Assay type: functional

[
  {
    "Compound": "CC1=C2C(=O)Nc3cccc(Cl)c3C2NC(=S)N1C (stereo not given)",
    "Assay System": "Radical scavenging activity",
    "Units Text": "%",
    "Activity": 15.3
  },
  {
    "Compound": "CC1=C2C(=O)Nc3ccccc3C2NC(=O)N1C (stereo not given)",
    "Assay System": "Radical scavenging activity",
    "Units Text": "%",
    "Activity": 9.8
  },
  {
    "Compound": "CC1=C2C(=O)Nc3c(Cl)cccc3C2NC(=O)N1C (stereo not given)",
    "Assay System": "Radical scavenging activity",
    "Units Text": "%",
    "Activity": 16.2
  },
  {
    "Compound": "CCN1C(=O)NC2C(=C1C)C(=O)Nc1c(Cl)cccc12 (stereo not given)",
    "Assay System": "Radical scavenging activity",
    "Units Text": "%",
    "Activity": 8.1
  },
  {
    "Compound": "CCN1C(=O)NC2C(=C1C)C(=O)Nc1ccccc12 (stereo not given)",
    "Assay System": "Radical scavenging activity",
    "Units Text": "%",
    "Activity": 9.1
  },
  {
    "Compound": "CC1=C2C(=O)Nc3cccc(Cl)c3C2NC(=O)N1C (stereo not given)",
    "Assay System": "Radical scavenging activity",
    "Units Text": "%",
    "Activity": 5.4
  },
  {
    "Compound": "CC1=C2C(=O)Nc3ccccc3C2NC(=S)N1C (stereo not given)",
    "Assay System": "Radical scavenging activity",
    "Units Text": "%",
    "Activity": 17.9
  },
  {
    "Compound": "CC1=C2C(=O)Nc3cccc(F)c3C2NC(=S)N1C (stereo not given)",
    "Assay System": "Radical scavenging activity",
    "Units Text": "%",
    "Activity": 17.4
  },
  {
    "Compound": "CC1=C2C(=O)Nc3cc(Cl)ccc3C2NC(=S)N1C (stereo not given)",
    "Assay System": "Radical scavenging activity",
    "Units Text": "%",
    "Activity": 23.8
  },
  {
    "Compound": "CCN1C(=O)NC2C(=C1C)C(=O)Nc1cccc(F)c12 (stereo not given)",
    "Assay System": "Radical scavenging activity",
    "Units Text": "%",
    "Activity": 8.7
  }
]

====

Experiment Description: Antioxidant activity assessed as hydroxyl radical scavenging activity at 200 uM/L after 2 hrs
Format: functional
Recorded measurements of Activity, one per entry

[
  {
    "Compound": "CC1=C2C(=O)Nc3ccccc3C2NC(=S)N1C (stereo unspecified)",
    "Activity (%)": 88.2
  },
  {
    "Compound": "CC1=C2C(=O)Nc3cccc(Cl)c3C2NC(=O)N1C (stereo unspecified)",
    "Activity (%)": 83.3
  },
  {
    "Compound": "CCN1C(=O)NC2C(=C1C)C(=O)Nc1c(Cl)cccc12 (stereo unspecified)",
    "Activity (%)": 86.7
  },
  {
    "Compound": "CC1=C2C(=O)Nc3c(Cl)cccc3C2NC(=O)N1C (stereo unspecified)",
    "Activity (%)": 89.2
  },
  {
    "Compound": "CCN1C(=O)NC2C(=C1C)C(=O)Nc1cccc(F)c12 (stereo unspecified)",
    "Activity (%)": 83.1
  },
  {
    "Compound": "CC1=C2C(=O)Nc3ccccc3C2NC(=O)N1C (stereo unspecified)",
    "Activity (%)": 89.7
  }
]

====

Experiment Description: Antioxidant activity assessed as hydroxyl radical scavenging activity at 20 uM/L after 2 hrs
Format: functional

[
  {
    "Compound": "CCN1C(=O)NC2C(=C1C)C(=O)Nc1cccc(F)c12 (stereo not given)",
    "Activity [%]": 12.5
  },
  {
    "Compound": "CCN1C(=O)NC2C(=C1C)C(=O)Nc1c(Cl)cccc12 (stereo not given)",
    "Activity [%]": 63.8
  },
  {
    "Compound": "CC1=C2C(=O)Nc3cccc(Cl)c3C2NC(=O)N1C (stereo not given)",
    "Activity [%]": 67.1
  },
  {
    "Compound": "CC1=C2C(=O)Nc3cccc(Cl)c3C2NC(=S)N1C (stereo not given)",
    "Activity [%]": 68
  },
  {
    "Compound": "CC1=C2C(=O)Nc3c(Cl)cccc3C2NC(=O)N1C (stereo not given)",
    "Activity [%]": 66
  },
  {
    "Compound": "CC1=C2C(=O)Nc3cccc(F)c3C2NC(=S)N1C (stereo not given)",
    "Activity [%]": 70.6
  },
  {
    "Compound": "CC1=C2C(=O)Nc3cc(Cl)ccc3C2NC(=S)N1C (stereo not given)",
    "Activity [%]": 68.7
  },
  {
    "Compound": "CC1=C2C(=O)Nc3ccccc3C2NC(=O)N1C (stereo not given)",
    "Activity [%]": 58.4
  },
  {
    "Compound": "CCN1C(=O)NC2C(=C1C)C(=O)Nc1ccccc12 (stereo not given)",
    "Activity [%]": 58.1
  },
  {
    "Compound": "CC1=C2C(=O)Nc3ccccc3C2NC(=S)N1C (stereo not given)",
    "Activity [%]": 56.3
  }
]

====

Experiment Description: Antioxidant activity assessed as hydroxyl radical scavenging activity at 200 uM/L after 2 hrs
Format: functional

[
  {
    "Compound": "CC1=C2C(=O)Nc3cccc(Cl)c3C2NC(=S)N1C (centres undefined)",
    "Activity": "92.3%"
  },
  {
    "Compound": "CC1=C2C(=O)Nc3cc(Cl)ccc3C2NC(=S)N1C (centres undefined)",
    "Activity": "90.2%"
  },
  {
    "Compound": "CC1=C2C(=O)Nc3cccc(F)c3C2NC(=S)N1C (centres undefined)",
    "Activity": "83.3%"
  },
  {
    "Compound": "CCN1C(=O)NC2C(=C1C)C(=O)Nc1ccccc12 (centres undefined)",
    "Activity": "89.1%"
  }
]

====

Experiment Description: Antioxidant activity assessed as hydroxyl radical scavenging activity at 150 uM/L after 2 hrs
Assay type: functional
Reported Endpoint: Activity (%)

[
  {
    "Compound": "CC1=C2C(=O)Nc3cccc(Cl)c3C2NC(=O)N1C (centres undefined)",
    "Reported Endpoint": "Activity",
    "Value": 83.2
  },
  {
    "Compound": "CC1=C2C(=O)Nc3cc(Cl)ccc3C2NC(=S)N1C (centres undefined)",
    "Reported Endpoint": "Activity",
    "Value": 88.5
  },
  {
    "Compound": "CC1=C2C(=O)Nc3ccccc3C2NC(=S)N1C (centres undefined)",
    "Reported Endpoint": "Activity",
    "Value": 82.3
  },
  {
    "Compound": "CC1=C2C(=O)Nc3c(Cl)cccc3C2NC(=O)N1C (centres undefined)",
    "Reported Endpoint": "Activity",
    "Value": 87.3
  }
]
